study-target: CMV-polymerase (Human cytomegalovirus (strain AD169) (HHV-5) (Human herpesvirus 5), UniProt P08546)
experimental-protocol: biochemical
experimental-conditions: read-out: CMV-polymerase Biochemical IC50
pIC50: −log10 of the molar value.

compound: Cn1nc(C(=O)NCc2ccc(C#N)cc2)c2c1C(=O)N(CC1(S(=O)(=O)NCCN)CC1)CC2 [Example 135]
pIC50: 7.21
//
compound: Cn1nc(C(=O)NCc2ccc(C#N)cc2)c2c1C(=O)N(CC1(S(=O)(=O)C(C)(C)CO)CC1)CC2 [Example 52]
pIC50: 9.00
//
compound: CN(C)CC(=O)NCC(C)(C)S(=O)(=O)C1(CN2CCc3c(C(=O)NCc4ccc(C#N)cc4)nn(C)c3C2=O)CC1 [Example 78]
pIC50: 7.59
//
compound: CN(C(CO)CO)S(=O)(=O)C1(CN2CCc3c(C(=O)NCc4ccc(C#N)cc4)nn(C)c3C2=O)CC1 [Example 147]
pIC50: 7.52

* * *

Listed below: log10 of IC50 values for each entry.
study-target: HSV-polymerase (Human herpesvirus 1 (strain 17) (HHV-1) (Human herpes simplex virus 1), UniProt P04293)
experimental-protocol: biochemical
value-type: log10 of IC50 (log10 of the value in nM)

compound: Cn1nc(C(=O)NCc2ccc(C#N)cc2)c2c1C(=O)N(CC1(S(=O)(=O)C(C)(CO)CO)CC1)CC2 [Example 176]
value-type: log10 of IC50
value-measured: 1.59
//
compound: CNS(=O)(=O)C1(CN2CCc3c(C(=O)NCc4ccc(C#N)cc4)nn(C)c3C2=O)CC1 [Example 123]
value-type: log10 of IC50
value-measured: 2.29
//
compound: C[C@H](NC(=O)c1nn(C)c2c1CCN(CC1(S(=O)(=O)C(C)(CO)CO)CC1)C2=O)c1ccc(Cl)cc1 [Example 177]
value-type: log10 of IC50
value-measured: 2.09
//
compound: Cn1nc(C(=O)NCc2ccc(C#N)cc2)c2c1C(=O)N(CC1(S(=O)(=O)C(C)(C)COC(F)CO)CC1)CC2 (single isomer, unassigned) [Example 81]
value-type: log10 of IC50
value-measured: 1.66
//
compound: Cn1nc(-c2cn(Cc3ccc(C#N)cc3)nn2)c2c1C(=O)N(CC1(S(=O)(=O)C(C)(C)CO)CC1)CC2 [Example 105]
value-type: log10 of IC50
value-measured: 1.51
//
compound: Cn1nc(C(=O)NCc2ccc(C#N)cc2)c2c1C(=O)N(CC1(S(=O)(=O)N3CC(O)C3)CC1)CC2 [Example 128]
value-type: log10 of IC50
value-measured: 2.14
//
compound: CC(O)Cn1nc(C(=O)NCc2ccc(C#N)cc2)c2c1C(=O)N(CC1(S(=O)(=O)C3CC3)CC1)CC2 (single isomer, unassigned) [Example 225]
value-type: log10 of IC50
value-measured: 1.95
//
compound: COCC(C)(CO)S(=O)(=O)C1(CN2CCc3c(C(=O)NCc4ccc(C#N)cc4)nn(C)c3C2=O)CC1 (single isomer, unassigned) [Example 181]
value-type: log10 of IC50
value-measured: 1.84
//
compound: COCC(C)(CO)S(=O)(=O)C1(CN2CCc3c(C(=O)NCc4ccc(C#N)cc4)nn(C)c3C2=O)CC1 (single isomer, unassigned) [Example 182]
value-type: log10 of IC50
value-measured: 1.66
//
compound: Cn1nc(C2=NO[C@@H](c3ccc(C#N)cc3)C2)c2c1C(=O)N(CC1(S(=O)(=O)C3CC3)CC1)CC2 [Example 32]
value-type: log10 of IC50
value-measured: 2.21
//
compound: CC(O)COCC(C)(C)S(=O)(=O)C1(CN2CCc3c(C(=O)NCc4ccc(C#N)cc4)nn(C)c3C2=O)CC1 (single isomer, unassigned) [Example 91]
value-type: log10 of IC50
value-measured: 1.84
//
compound: Cn1nc(C(=O)NCc2ccc(C#N)cc2)c2c1C(=O)N(CC1(S(=O)(=O)C(F)F)CC1)CC2 [Example 38]
value-type: log10 of IC50
value-measured: 2.89
//
compound: CC(=O)NCC(C)(C)S(=O)(=O)C1(CN2CCc3c(C(=O)NCc4ccc(C#N)cc4)nn(C)c3C2=O)CC1 [Example 72]
value-type: log10 of IC50
value-measured: 1.71
//
compound: Cn1nc(C(=O)NCc2ccc(Cl)cc2)c2c1C(=O)N(CC1(S(=O)(=O)C(C)(C)COCCN)CC1)CC2 [Example 93]
value-type: log10 of IC50
value-measured: 1.40
//
compound: Cn1nc(C(=O)NCc2ccc(Cl)cc2)c2c1C(=O)N(CC1(S(=O)(=O)C3(COCCN)CC3)CC1)CC2 [Example 95]
value-type: log10 of IC50
value-measured: 1.40
//
compound: CC(O)CC(C)(C)S(=O)(=O)C1(CN2CCc3c(C(=O)NCc4ccc(C#N)cc4)nn(C)c3C2=O)CC1 (single isomer, unassigned) [Example 116]
value-type: log10 of IC50
value-measured: 1.68
//
compound: Cn1nc(C(=O)NCc2ccc(C#N)cc2)c2ccn(CC3(S(C)(=O)=O)CC3)c(=O)c21 [Example 2]
value-type: log10 of IC50
value-measured: 3.27
//
compound: Cn1nc(C(=O)NCc2ccc(C#N)cc2)c2c1C(=O)N(CC1(S(=O)(=O)C(C)(C)CNC=O)CC1)CC2 [Example 71]
value-type: log10 of IC50
value-measured: 1.52
//
compound: [2H]C([2H])(O)C(C)(C)S(=O)(=O)C1(CN2CCc3c(C(=O)NCc4ccc(C#N)cc4)nn(C)c3C2=O)CC1 [Example 56]
value-type: log10 of IC50
value-measured: 1.23

* * *

study-target: CMV-polymerase (Human cytomegalovirus (strain AD169) (HHV-5) (Human herpesvirus 5), UniProt P08546)
experimental-protocol: biochemical
experimental-conditions: read-out: CMV-polymerase Biochemical IC50
pIC50: −log10 of the molar value.

molecule: Cn1nc(C(=O)NCc2ccc(C#N)cc2)c2c1C(=O)N(CC1(S(=O)(=O)C(C)(C)CNC(=O)C(C)(C)N)CC1)CC2 [Example 77]
pIC50: 7.92

molecule: COC(=O)NCC(C)(C)S(=O)(=O)C1(CN2CCc3c(C(=O)NCc4ccc(C#N)cc4)nn(C)c3C2=O)CC1 [Example 73]
pIC50: 8.70

molecule: CN(C)CCOCC(C)(C)S(=O)(=O)C1(CN2CCc3c(C(=O)NCc4ccc(C#N)cc4)nn(C)c3C2=O)CC1 [Example 104]
pIC50: 8.52

molecule: Cn1nc(C(=O)NCc2ccc(Cl)cc2)c2c1C(=O)N(CC1(S(=O)(=O)C(C)(C)[C@@H](O)CO)CC1)CC2 [Example 190]
pIC50: 9.00

* * *

study-target: CMV-polymerase (Human cytomegalovirus (strain AD169) (HHV-5) (Human herpesvirus 5))
experimental-protocol: biochemical
experimental-conditions: read-out: CMV-polymerase Biochemical IC50
In this section we review reported IC50 values for a set of compounds.
value-type: IC50 (nM)

compound: Cn1nc(C(=O)NOc2ccc(Cl)cc2)c2c1C(=O)N(CC1(S(=O)(=O)C3(C)CC3)CC1)CC2 [Example 37]
value-measured: 7

compound: Cn1nc(C(=O)NCc2ccc(Cl)cc2)c2c1C(=O)N(CC1(S(=O)(=O)N3CC(O)C3)CC1)CC2 [Example 150]
value-measured: 6

compound: O=C(NCc1ccc(Cl)cc1)c1nn(CCO)c2c1CCN(CC1(S(=O)(=O)C3CC3)CC1)C2=O [Example 218]
value-measured: 6

compound: CC(C)(O)Cn1nc(C(=O)NCc2ccc(Cl)cc2)c2c1C(=O)N(CC1(S(C)(=O)=O)CC1)CC2 [Example 231]
value-measured: 7

compound: Cn1nc(C(=O)NCc2ccc(C#N)cc2)c2c1C(=O)N(CC1(S(=O)(=O)N3CC[C@@H](N)C3)CC1)CC2 [Example 141]
value-measured: 13

compound: Cn1nc(C(=O)NCc2ccc(C#N)cc2)c2c1C(=O)N(CC1(S(=O)(=O)C(C)(C)CN3CC4CC(C3)O4)CC1)CC2 [Example 63]
value-measured: 6

compound: Cn1nc(C(=O)N[C@H](CO)c2ccc(Cl)cc2)c2c1C(=O)N(CC1(S(=O)(=O)C3CC3)CC1)CC2 [Example 19]
value-measured: 55

compound: CC1(S(=O)(=O)C2(CN3CCc4c(C(=O)NCc5ccc(C#N)cc5)nn(CCCO)c4C3=O)CC2)CC1 [Example 237]
value-measured: 2

compound: Cc1cccnc1NS(=O)(=O)C1(CN2CCc3c(C(=O)NCc4ccc(C#N)cc4)nn(C)c3C2=O)CC1 [Example 164]
value-measured: 6

compound: Cn1nc(C(=O)NCc2ccc(Cl)cc2)c2c1C(=O)N(CC1(S(=O)(=O)C3(COCCN)CC3)CC1)CC2 [Example 95]
value-measured: 2

compound: CN(Cc1ccc(C#N)cc1)C(=O)c1nn(C)c2c1CCN(CC1(S(=O)(=O)C3CC3)CC1)C2=O [Example 6]
value-measured: 30

compound: CC(C)(O)Cn1nc(C(=O)NCc2ccc(C#N)cc2)c2c1C(=O)N(CC1(S(C)(=O)=O)CC1)CC2 [Example 232]
value-measured: 6

compound: Cn1nc(-c2cn(Cc3ccc(C#N)cc3)nn2)c2c1C(=O)N(CC1(S(=O)(=O)C(C)(C)CO)CC1)CC2 [Example 105]
value-measured: 1

compound: Cn1nc(C(=O)NCc2ccc(C#N)cc2)c2c1C(=O)N(CC1(S(=O)(=O)C(C)(C)CN3CC(O)C3)CC1)CC2 [Example 65]
value-measured: 2

compound: Cn1nc(C(=O)NCc2ccc(C#N)cc2)c2c1C(=O)N(CC1(S(=O)(=O)NC(C)(C)CO)CC1)CC2 [Example 149]
value-measured: 12

compound: C[C@H](NC(=O)c1nn(C)c2c1CCN(CC1(S(=O)(=O)C(C)(CO)CO)CC1)C2=O)c1ccc(Cl)cc1 [Example 177]
value-measured: 4

compound: C[C@@H](NC(=O)c1nn(C)c2c1CCN(CC1(S(=O)(=O)C(C)(CO)CO)CC1)C2=O)c1ccc(Cl)cc1 [Example 178]
value-measured: 240

compound: Cc1ncccc1NS(=O)(=O)C1(CN2CCc3c(C(=O)NCc4ccc(C#N)cc4)nn(C)c3C2=O)CC1 [Example 161]
value-measured: 2

compound: Cn1nc(C(=O)NCc2ccc(F)cc2)c2c1C(=O)N(CC1(S(=O)(=O)C3CC3)CC1)CC2 [Example 5]
value-measured: 30
